Each recorded value in this set is attributed to PubChem BioAssay (NCI).

- Test Description: NCI Yeast Anticancer Drug Screen. Data for the mlh1 rad18 strain (AID 175)
- Run Conditions: S. cerevisiae mlh1 rad18 strain growth inhibition; at 50.0 µM; hits give high values
Compounds without any hit were thinned out: in the full panel of roughly 79,000, 15% have a hit. Calls of active or inactive are those of the source. Rule as the data show it: active = growth inhibition above about 70%; inactive = the rest.

| Molecule | growth inhibition |
| --- | --- |
| CC(C)=Cc1ccccc1C1(C)C(c2ccccc2)=C1c1ccccc1 | -3.6% (inactive) |
| N#CCN1CCOCC1 | 27.1% (inactive) |
| Cc1cccc2nnc(CCCc3nnc4cccc(C)n34)n12 | -6.3% (inactive) |
| Cc1ccc2cccc(CCOC(=O)c3ccc([N+](=O)[O-])cc3)c2c1 | 4.7% (inactive) |
| CC1(C)C2CCC1(C)C(S)C2 (stereo unspecified) | 11.9% (inactive) |
| COc1ccc(-c2csc(N)n2)cc1OC | 1.9% (inactive) |
| CCOCCOCCOC(C)Oc1ccc(Cl)cc1 (stereo unspecified) | 9.55% (inactive) |
| CN(C)CCCN=c1c2ccccc2n(C)c2[nH]c(=O)n(C)c(=O)c12 | -6.85% (inactive) |
| OCCCCN1CCCCC1 | -5.05% (inactive) |
| C=CCOC(=O)/C=C\c1ccccc1OC | -3.3% (inactive) |
| c1ccc(-c2nc3ccccc3o2)cc1 | 37.4% (inactive) |
| CC(=O)NNC(=S)N/C=C(\C#N)c1nc2ccccc2s1 | 12.1% (inactive) |
| C(/C=C/C=C/Nc1ccc(N=Nc2ccccc2)cc1)=Nc1ccc(N=Nc2ccccc2)cc1 | -30% (inactive) |
| CN(CC(N)=O)C(=O)c1cnc2ccccc2c1 | 0.4% (inactive) |
| O=C1CCCCC/C1=C\O | 5.15% (inactive) |
| COc1ccc2nc(NC(=O)C(=O)C(C#N)c3ccc(Cl)c(Cl)c3)sc2c1 (stereo unspecified) | 36.4% (inactive) |
| CN(C)CCN(C=O)CCN(C)C | -0.2% (inactive) |
| CCCCCCCCCCCC(=O)OCCSC#N | 0.05% (inactive) |
| COc1c2occc2c(CC(O)C(C)(C)O)c2ccc(=O)oc12 (stereo unspecified) | -13.2% (inactive) |
| O=S1(=O)OCCOS(=O)(=O)C1(F)Br | -29.8% (inactive) |
| Cc1c(Cc2ccccc2)c(N2CCOCC2)n2c(nc3ccccc32)c1C#N | 5.65% (inactive) |
| O=c1oc2ccccc2c(O)c1Oc1ccccc1 | -1.05% (inactive) |
| COC(=O)C(Cc1ccc2c(c1)OCO2)(NC(=O)c1ccccc1)P(=O)(OC)OC (stereo unspecified) | -32.5% (inactive) |
| O/N=C1/C(=C/c2ccccc2)CCCC1C(NO)c1ccccc1 (stereo unspecified) | 57.6% (inactive) |
| C=CCC1=C(C)C[C@@H]2CCC(=O)C=C12 | 5.5% (inactive) |
| COc1ccc(CN2COc3c(ccc4ccccc34)C2)cc1 | 30.9% (inactive) |
